Target: Nav1.7 (or SCN9A) channel (Homo sapiens)
Construct: expressed in transfected cells
Sequence (Q15858 whole entry): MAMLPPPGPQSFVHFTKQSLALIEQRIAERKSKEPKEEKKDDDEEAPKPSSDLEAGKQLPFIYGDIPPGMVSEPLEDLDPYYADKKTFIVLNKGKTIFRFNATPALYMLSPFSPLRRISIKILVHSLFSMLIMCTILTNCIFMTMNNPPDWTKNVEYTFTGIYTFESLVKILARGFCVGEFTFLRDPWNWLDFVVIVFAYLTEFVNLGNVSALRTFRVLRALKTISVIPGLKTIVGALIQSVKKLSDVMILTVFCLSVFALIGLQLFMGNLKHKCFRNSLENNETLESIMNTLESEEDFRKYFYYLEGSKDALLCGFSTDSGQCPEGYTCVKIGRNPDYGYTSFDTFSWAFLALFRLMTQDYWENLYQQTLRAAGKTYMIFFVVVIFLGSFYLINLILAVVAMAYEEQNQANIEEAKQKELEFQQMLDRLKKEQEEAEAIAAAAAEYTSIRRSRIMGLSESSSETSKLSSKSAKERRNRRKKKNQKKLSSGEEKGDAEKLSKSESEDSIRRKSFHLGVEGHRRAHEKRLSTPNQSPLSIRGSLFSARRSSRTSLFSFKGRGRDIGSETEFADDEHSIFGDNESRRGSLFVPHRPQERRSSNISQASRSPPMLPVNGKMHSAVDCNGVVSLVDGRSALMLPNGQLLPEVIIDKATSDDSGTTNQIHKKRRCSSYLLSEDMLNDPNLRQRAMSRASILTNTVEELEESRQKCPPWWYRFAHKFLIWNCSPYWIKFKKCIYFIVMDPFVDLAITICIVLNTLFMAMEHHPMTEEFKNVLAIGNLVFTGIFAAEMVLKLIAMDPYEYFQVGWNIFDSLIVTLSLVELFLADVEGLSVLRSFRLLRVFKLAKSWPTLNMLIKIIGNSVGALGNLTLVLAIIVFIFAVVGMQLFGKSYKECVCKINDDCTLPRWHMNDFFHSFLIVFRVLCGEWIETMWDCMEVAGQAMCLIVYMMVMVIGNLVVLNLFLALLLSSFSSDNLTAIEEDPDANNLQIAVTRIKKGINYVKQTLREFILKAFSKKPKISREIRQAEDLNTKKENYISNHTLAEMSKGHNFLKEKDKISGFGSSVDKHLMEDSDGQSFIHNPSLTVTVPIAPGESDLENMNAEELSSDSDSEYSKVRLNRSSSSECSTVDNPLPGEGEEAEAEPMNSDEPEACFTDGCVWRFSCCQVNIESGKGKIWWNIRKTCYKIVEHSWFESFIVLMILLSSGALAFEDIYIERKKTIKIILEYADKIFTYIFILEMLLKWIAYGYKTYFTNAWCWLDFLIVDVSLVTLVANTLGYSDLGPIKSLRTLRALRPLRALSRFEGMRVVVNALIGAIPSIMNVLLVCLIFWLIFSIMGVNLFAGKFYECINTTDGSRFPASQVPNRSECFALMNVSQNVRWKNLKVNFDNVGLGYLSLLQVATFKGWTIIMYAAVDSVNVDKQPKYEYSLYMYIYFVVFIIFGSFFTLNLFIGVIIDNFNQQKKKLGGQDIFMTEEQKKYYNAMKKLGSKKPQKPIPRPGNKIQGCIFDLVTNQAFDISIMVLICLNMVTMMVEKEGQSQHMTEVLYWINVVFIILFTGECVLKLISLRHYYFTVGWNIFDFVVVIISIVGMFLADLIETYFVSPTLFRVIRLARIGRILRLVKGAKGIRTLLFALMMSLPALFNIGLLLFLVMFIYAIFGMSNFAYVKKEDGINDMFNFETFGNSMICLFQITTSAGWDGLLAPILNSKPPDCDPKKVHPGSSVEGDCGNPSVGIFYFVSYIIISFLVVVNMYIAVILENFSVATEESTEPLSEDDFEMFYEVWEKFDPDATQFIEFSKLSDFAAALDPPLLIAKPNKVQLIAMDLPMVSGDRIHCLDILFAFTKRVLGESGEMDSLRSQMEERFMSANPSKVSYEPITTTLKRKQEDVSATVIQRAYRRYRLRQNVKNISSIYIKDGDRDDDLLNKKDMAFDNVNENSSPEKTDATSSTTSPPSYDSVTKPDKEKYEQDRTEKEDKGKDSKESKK
Assay: Nav1.7 (hSCN9A) channel block, PatchXpress whole-cell electrophysiology
Type: cell-based
Conditions: PatchXpress platform; HEK cells stably transfected with hSCN9A; estimated IC-50 calculated from single point % inhibition at V1/2; read-out: Nav1.7 EIC50
pIC50: −log10 of the molar value.
# binarize pIC50: threshold 7 inclusive, high side Met, low side Not met

Task item: Form field: pIC50 at least 7? Entry: CS(=O)(=O)NC(=O)c1ccc(COc2ccc(Cl)cn2)cc1 [Example 63]
Reply: Not met

Task item: Form field: pIC50 at least 7? Entry: CS(=O)(=O)NC(=O)c1cc(Cl)c(COc2cnc(C3CC3)c(Cl)c2)cc1F [Example 42]
Reply: Met

Task item: Form field: pIC50 at least 7? Entry: CS(=O)(=O)NC(=O)c1ccc(COc2cc(C(F)(F)F)c(Cl)cn2)cc1 [Example 62]
Reply: Not met

Task item: Form field: pIC50 at least 7? Entry: CS(=O)(=O)NC(=O)c1ccc(COc2ccc3ccncc3c2)cc1 [Example 53]
Reply: Not met

Task item: Form field: pIC50 at least 7? Entry: CC(C)(F)COc1ncc(OCc2cc(F)c(C(=O)NS(C)(=O)=O)cc2Cl)cc1Cl [Example 45]
Reply: Met

Task item: Form field: pIC50 at least 7? Entry: CC(C)COc1ncc(OCc2ccc(C(=O)NS(C)(=O)=O)cc2)cc1Cl [Example 3]
Reply: Not met

Task item: Form field: pIC50 at least 7? Entry: CC(C)Oc1ncc(OCc2cc(F)c(C(=O)NS(C)(=O)=O)cc2Cl)cc1Cl [Example 35]
Reply: Met

Task item: Form field: pIC50 at least 7? Entry: CS(=O)(=O)NC(=O)c1cc(F)c(COc2ccc(C(F)(F)F)cn2)cc1F [Example 56]
Reply: Not met

Task item: Form field: pIC50 at least 7? Entry: COc1ccc(OCc2ccc(C(=O)NS(C)(=O)=O)cc2)cn1 [Example 7]
Reply: Not met

Task item: Form field: pIC50 at least 7? Entry: [2H]C([2H])([2H])C(Oc1ncc(OCc2cc(F)c(C(=O)NS(C)(=O)=O)cc2F)cc1Cl)(C([2H])([2H])[2H])C([2H])([2H])[2H] [Example 15]
Reply: Met

Task item: Form field: pIC50 at least 7? Entry: CS(=O)(=O)NC(=O)c1cc(F)c(COc2ccc(C(F)(F)F)nc2)cc1F [Example 26]
Reply: Not met

Task item: Form field: pIC50 at least 7? Entry: CC(C)(Oc1ncc(OCc2cc(F)c(C(=O)NS(C)(=O)=O)cc2F)cc1Cl)C(F)(F)F [Example 49]
Reply: Met

Task item: Form field: pIC50 at least 7? Entry: CC(C)Oc1ncc(OCc2cc(F)c(C(=O)NS(C)(=O)=O)cc2Cl)cn1 [Example 58]
Reply: Not met

Task item: Form field: pIC50 at least 7? Entry: CS(=O)(=O)NC(=O)c1cc(F)c(COc2cc(C(F)(F)F)c(Cl)cn2)cc1F [Example 55]
Reply: Not met

Task item: Form field: pIC50 at least 7? Entry: CC(C)Oc1ncc(COc2cc(F)c(C(=O)NS(C)(=O)=O)cc2F)cc1Cl [Example 29]
Reply: Not met

Task item: Form field: pIC50 at least 7? Entry: CS(=O)(=O)NC(=O)c1cc(F)c(COc2cnc(OCCC(F)(F)F)c(Cl)c2)cc1F [Example 11]
Reply: Met

Task item: Form field: pIC50 at least 7? Entry: COc1ncc(OCc2cc(F)c(C(=O)NS(=O)(=O)C3CC3)cc2F)cc1Cl [Example 4]
Reply: Not met

Task item: Form field: pIC50 at least 7? Entry: CS(=O)(=O)NC(=O)c1cc(F)c(OCc2ccc(Cl)cn2)cc1F [Example 64]
Reply: Not met

Task item: Form field: pIC50 at least 7? Entry: CS(=O)(=O)NC(=O)c1cc(F)c(COc2cnc(OCC(F)(F)C(F)F)c(Cl)c2)cc1F [Example 22]
Reply: Met

Task item: Form field: pIC50 at least 7? Entry: CC(C)(C)c1ncc(OCc2cc(F)c(C(=O)NS(C)(=O)=O)cc2Cl)cc1Cl [Example 38]
Reply: Met

Task item: Form field: pIC50 at least 7? Entry: COc1cc(COc2cnc(OCC(C)C)c(Cl)c2)ccc1C(=O)NS(C)(=O)=O [Example 47]
Reply: Not met

Task item: Form field: pIC50 at least 7? Entry: COc1ncc(COc2ccc(C(=O)NS(C)(=O)=O)cc2Cl)cc1Cl [Example 51]
Reply: Not met

Task item: Form field: pIC50 at least 7? Entry: COc1ncc(OCc2cc(F)c(C(=O)NS(C)(=O)=O)cc2Cl)cc1Cl [Example 33]
Reply: Not met

Task item: Form field: pIC50 at least 7? Entry: COc1cc(C(=O)NS(C)(=O)=O)ccc1COc1cnc(OCC(C)C)c(Cl)c1 [Example 5]
Reply: Not met

Task item: Form field: pIC50 at least 7? Entry: COc1ncc(OCc2cc(F)c(C(=O)NS(C)(=O)=O)cc2F)cc1Cl [Example 28]
Reply: Not met
